melting point listing for selected molecules.
PROPERTY_LABEL: melting point

| SMI | MEASUREMENT |
| --- | --- |
| c1ccc(OCCSCc2nnc(-c3ccc(OCCN4CCSCC4)cc3)o2)cc1 | 60 °C |
| Nc1ccc(-c2nnc(CSCCOc3ccccc3)o2)cc1 | 126 to 130 °C |
| CN(C)CCCOc1ccc(-c2nnc(CSCCOc3ccc4ccccc4c3)o2)cc1 | 97 to 98 °C |
| CN(C)CCCOc1ccc(-c2nnc(CSCCOc3ccccc3)n2Cc2ccccc2)cc1.O=C(O)C(=O)O | 88 to 92 °C |
| CNCCCOc1ccc(-c2nnc(CSCCOc3ccccc3)o2)cc1 | 40 to 44 °C |
| CN(C)CCCOc1ccc(-c2nnc(CSCCOc3cccc(OC(F)(F)F)c3)o2)cc1 | 46 to 46.5 °C |
| O=C(NCCN1CCCC1)Nc1ccc(-c2nnc(CSCCOc3ccccc3)o2)cc1.O=C(O)C(=O)O | 111 to 115 °C |
| CN(C)CCCNC(=O)c1ccc(-c2nnc(CSCCCOc3ccccc3)o2)cc1 | 77 to 80 °C |
| c1ccc(OCCSCc2nnc(-c3ccc(OCc4ccncc4)cc3)o2)cc1 | 80 to 90 °C |
| CCN(CC)CCCOc1ccc(-c2nnc(CSCCOc3ccccc3)o2)cc1 | 27 to 31 °C |
| CN(C)CCCCNC(=O)c1cccc(-c2nnc(CSCCOc3ccccc3)o2)c1 | 38 to 42 °C |
| c1ccc(OCCSCc2nnc(-c3ccc(OCCCN4CCCCC4)cc3)o2)cc1 | 65 °C |
| CN(C)CCCNC(=O)c1ccccc1-c1nnc(CSCCOc2ccccc2)o1 | 60 to 65 °C |
| c1ccc2oc(Cc3nnc(-c4ccc(OCCCN5CCCCC5)cc4)o3)cc2c1 | 76 to 79 °C |
| O=C(NCCN1CCCCC1)Nc1ccc(-c2cnc(CSCCOc3ccccc3)o2)cc1 | 84 to 87 °C |
| c1ccc(OCCSCc2ncc(-c3ccc(OCCN4CCCCCC4)cc3)o2)cc1 | 35 to 38 °C |
| c1ccc(OCCSCc2nnc(-c3ccc(OCc4cccnc4)cc3)o2)cc1 | 111 to 112 °C |
| c1ccc(OCCSCc2nnc(-c3ccc(OCCCN4CCOCC4)cc3)o2)cc1 | 65 °C |

---

- SYSTEM: human MCHR1 (Homo sapiens)
- Construct: The full-length cDNA for human MCHR1 was cloned from a human adult brain cDNA library; expressed in transfected cells; host or cells: AV12 cells previously transfected with Gα15
- Sequence (Q99705 whole entry): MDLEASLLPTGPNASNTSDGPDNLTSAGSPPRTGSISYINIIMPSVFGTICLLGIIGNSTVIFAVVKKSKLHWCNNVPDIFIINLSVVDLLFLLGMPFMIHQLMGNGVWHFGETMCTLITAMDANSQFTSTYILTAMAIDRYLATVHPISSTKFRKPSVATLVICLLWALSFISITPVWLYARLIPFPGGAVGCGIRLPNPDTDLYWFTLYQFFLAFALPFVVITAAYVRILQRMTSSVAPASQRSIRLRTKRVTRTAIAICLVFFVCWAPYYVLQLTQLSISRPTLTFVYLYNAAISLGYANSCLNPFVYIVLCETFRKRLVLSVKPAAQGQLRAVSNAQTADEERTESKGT
- ASSAY_DETAILS: Inhibition of MCH-stimulated GTPγ35S binding to clone 43 membranes (functional antagonism)
- Type: biochemical
- CONDITION_INFO: inhibition of GTPγ35S binding stimulated by 40 nM MCH (about EC90), Kb from IC50 by modified Cheng-Prusoff (Leff and Dougal), tested in duplicate
PROPERTY_LABEL: Kb

| COMPOUND | PROPERTY_LABEL | MEASUREMENT |
| --- | --- | --- |
| CN(C)CCCOc1ccc(-c2nnc(CSCc3ccc4ccccc4c3)o2)cc1 | Kb | 50.6 nM |
| CN(C)CCOc1ccc(-c2cnc(CSCCOc3ccccc3)o2)cc1 | Kb | 9.4 nM |
| CC(C)N(CCCOc1ccc(-c2nnc(CSCCOc3ccccc3)o2)cc1)C(C)C [drawing 60] | Kb | 145 nM |
| c1ccc(OCCSCc2ncc(-c3ccc(OCCCN4CCCCC4)cc3)o2)cc1 | Kb | 15.9 nM |
| c1ccc(OCCSCc2ncc(-c3ccc(OCCN4CCCC4)cc3)o2)cc1 | Kb | 12 nM |
| C(=C\c1ccc(-c2nnc(CSCCOc3ccccc3)o2)cc1)/CN1CCCC1 [drawing 38] | Kb | 6 nM |
| O=C(NCCN1CCCC1)Nc1ccc(-c2nnc(CSCCOc3ccccc3)o2)cc1 | Kb | 20 nM |
| CC(C)N(CCCCOc1ccc(-c2nnc(CSCCOc3ccccc3)o2)cc1)C(C)C [drawing 59] | Kb | 52.1 nM |
| c1ccc(OCCSCc2ncc(-c3ccc(OCCCN4CCCC4)cc3)o2)cc1 | Kb | 16.5 nM |
| CN1CCC[C@@H]1CCOc1ccc(-c2nnc(CSCCOc3ccccc3)o2)cc1 | Kb | 39.6 nM |
| CN(C)CCCOc1ccc(-c2nnc(CSCCOc3ccccc3)o2)cc1 [drawing 52] | Kb | 11.9 nM |
| CN(C)C/C=C/c1ccc(-c2nnc(CSCCOc3ccccc3)o2)cc1 | Kb | 11.6 nM |
| c1ccc(OCCSCc2ncc(-c3ccc(OCCN4CCCCC4)cc3)o2)cc1 | Kb | 7.3 nM |
| CN(C)CCCOc1ccc(-c2coc(CSCCOc3ccccc3)n2)cc1 | Kb | 41.5 nM |
| CN(C)CCCOc1ccc(-c2nnc(CSCc3cc4ccccc4s3)o2)cc1 | Kb | 139 nM |
| c1ccc(OCCSCc2nnc(-c3ccc(OCc4cccnc4)cc3)o2)cc1 [drawing 61] | Kb | 6890 nM |
| c1ccc(OCCSCc2nnc(-c3ccc(OCCCN4CCCC4)cc3)o2)cc1 [drawing 51] | Kb | 18.1 nM |
| CN(C)CCCOc1ccc(-c2cnc(CSCCOc3ccccc3)o2)cc1 | Kb | 15 nM |
| CN(C)CCOc1ccc(-c2nnc(CSCCOc3ccccc3)o2)cc1 [drawing 41] | Kb | 13.6 nM |
| c1ccc(OCCSCc2nnc(-c3ccc(OCCCCN4CCCCCC4)cc3)o2)cc1 [drawing 57] | Kb | 31.3 nM |

---

Where a name gives a salt, the structure may show the parent alone.
PROPERTY_LABEL: melting point

| MOLECULE | PROPERTY_LABEL | MEASUREMENT |
| --- | --- | --- |
| CN(C)CCNC(=O)c1ccccc1-c1nnc(CSCCOc2ccccc2)o1 | melting point | 80 to 85 °C |
| CN(C)CCCOc1ccc(-c2nnc(CSCCOCc3ccccc3)o2)cc1 (as salt: maleate) | melting point | 71.5 to 72 °C |
| CN(C)CCCCOc1ccc(-c2nnc(CSCCOc3ccccc3)o2)cc1 | melting point | 62 to 63 °C |
| CN(C)CCCOc1ccc(-c2nnc(CSCCOc3ccccc3)s2)cc1 | melting point | 72 to 73 °C |
| CN(C)CCNC(=S)Nc1ccc(-c2nnc(CSCCOc3ccccc3)o2)cc1 | melting point | 155 to 158 °C |

---

| COMPOUND | melting point |
| --- | --- |
| c1ccc(OCCSCc2nnc(-c3ccc(OCc4ccccn4)cc3)o2)cc1 [Example 99] | 115 °C |
| CN(C)CCCOc1ccc(-c2nnc(CSCCOc3ccccc3)o2)nc1 [Example 289] | 47 to 49 °C |
| CN(C)CCCNc1ccc(-c2nnc(CSCCOc3ccccc3)o2)cn1 [Example 259] | 94 to 96 °C |
